test system: Mus musculus; experiment: Apparent clearance in NOD/SCID mouse at 1 mg/kg, po by LC-MS/MS-based non-compartmental extravascular input analysis; type: ADME, organism-based; settings: in vivo
property-measured: CL/F (L/h/kg)
# output: bare number, implied unit L/h/kg

Reported CL/F of O=C(Nc1ccc(C(F)(F)F)cc1)c1cc(Cl)cc2nc(C(F)(F)F)[nH]c12 : 0.06

* * *

test: Apparent oral volume of distribution in NOD/SCID mouse at 1 mg/kg by LC-MS/MS-based compartmental first order extravascular input, first order elimination analysis; format: ADME, organism-based; conditions: in vivo
property-measured: Vd/F (L/kg)
# output: bare number, implied unit L/kg

Reported Vd/F of O=C(Nc1ccc(C(F)(F)F)cc1)c1cc(Cl)cc2nc(C(F)(F)F)[nH]c12 : 0.98

* * *

assay: AUC (0 to infinity) in NOD/SCID mouse at 200 mg/kg, po by LC-MS/MS-based non-compartmental extravascular input analysis; assay type: ADME, organism-based; parameters: dose 200 mg/kg, time infinity, route oral; conditions: in vivo
property-measured: AUC(0-inf) (ng·h/mL)
# output: bare number, implied unit ng·h/mL

Reported AUC(0-inf) of O=C(Nc1ccc([N+](=O)[O-])cc1Cl)c1cc(Cl)ccc1O [NICLOSAMIDE] : 1020

* * *

tested on: Mus musculus; assay: Apparent clearance in NOD/SCID mouse at 1 mg/kg, po by LC-MS/MS-based compartmental first order extravascular input, first order elimination analysis; type: ADME, organism-based; conditions: in vivo
property-measured: CL/F (mL/min/kg)
# output: bare number, implied unit mL/min/kg

Reported CL/F of O=C(Nc1ccc(C(F)(F)F)cc1)c1cc(Cl)cc2nc(C(F)(F)F)[nH]c12 : 1

* * *

assay: AUC (0 to 24 hrs) in NOD/SCID mouse at 200 mg/kg, po by LC-MS/MS-based non-compartmental extravascular input analysis; type: ADME, organism-based; set-up: time < 24 hr, dose 200 mg/kg, route oral; conditions: in vivo
property-measured: AUC(0-t) at 24 h (µg·h/mL)
# output: bare number, implied unit µg·h/mL

Reported AUC(0-t) at 24 h of O=C(Nc1ccc([N+](=O)[O-])cc1Cl)c1cc(Cl)ccc1O [NICLOSAMIDE] : 1.01
